Target: T1, human collagen type I, acid soluble, extracted from placenta (Sigma C7774) (human, UniProt P02452 162-1218; P08123 80-1119)
T1 construct: tissue extract, gelled and dried in wells; also called dried human collagen; h-Collagen
T1 sequence (P02452 162-1218 limits assumed, chain 1 of 2): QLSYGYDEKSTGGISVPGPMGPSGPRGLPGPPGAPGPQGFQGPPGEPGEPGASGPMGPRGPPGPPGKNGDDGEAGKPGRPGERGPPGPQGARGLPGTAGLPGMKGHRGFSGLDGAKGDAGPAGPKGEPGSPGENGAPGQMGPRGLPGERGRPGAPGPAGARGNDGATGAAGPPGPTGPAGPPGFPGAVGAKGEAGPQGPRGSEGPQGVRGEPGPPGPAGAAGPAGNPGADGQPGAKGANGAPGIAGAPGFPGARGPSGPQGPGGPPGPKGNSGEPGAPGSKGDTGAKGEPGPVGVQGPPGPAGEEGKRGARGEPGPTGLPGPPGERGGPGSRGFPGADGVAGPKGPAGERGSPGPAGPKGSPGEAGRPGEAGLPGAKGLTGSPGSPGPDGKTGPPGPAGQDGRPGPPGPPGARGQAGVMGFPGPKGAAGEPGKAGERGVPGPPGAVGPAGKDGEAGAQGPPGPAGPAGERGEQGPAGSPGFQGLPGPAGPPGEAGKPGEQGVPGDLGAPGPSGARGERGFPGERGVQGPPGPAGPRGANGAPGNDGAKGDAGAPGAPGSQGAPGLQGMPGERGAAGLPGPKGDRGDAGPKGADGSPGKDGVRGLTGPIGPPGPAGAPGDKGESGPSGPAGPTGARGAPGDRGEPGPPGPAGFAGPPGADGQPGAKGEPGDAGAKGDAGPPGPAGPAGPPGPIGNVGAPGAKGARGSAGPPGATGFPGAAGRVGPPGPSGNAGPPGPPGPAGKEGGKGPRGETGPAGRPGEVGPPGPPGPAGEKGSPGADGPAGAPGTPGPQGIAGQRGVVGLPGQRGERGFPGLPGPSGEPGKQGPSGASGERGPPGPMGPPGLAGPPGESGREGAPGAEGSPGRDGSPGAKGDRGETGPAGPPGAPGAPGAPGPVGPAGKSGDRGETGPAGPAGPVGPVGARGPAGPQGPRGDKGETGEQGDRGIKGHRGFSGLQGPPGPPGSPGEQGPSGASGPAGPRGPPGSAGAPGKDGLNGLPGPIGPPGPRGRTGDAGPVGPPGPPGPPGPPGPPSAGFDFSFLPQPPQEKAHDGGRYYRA
T1 sequence (P08123 80-1119 limits assumed, chain 2 of 2): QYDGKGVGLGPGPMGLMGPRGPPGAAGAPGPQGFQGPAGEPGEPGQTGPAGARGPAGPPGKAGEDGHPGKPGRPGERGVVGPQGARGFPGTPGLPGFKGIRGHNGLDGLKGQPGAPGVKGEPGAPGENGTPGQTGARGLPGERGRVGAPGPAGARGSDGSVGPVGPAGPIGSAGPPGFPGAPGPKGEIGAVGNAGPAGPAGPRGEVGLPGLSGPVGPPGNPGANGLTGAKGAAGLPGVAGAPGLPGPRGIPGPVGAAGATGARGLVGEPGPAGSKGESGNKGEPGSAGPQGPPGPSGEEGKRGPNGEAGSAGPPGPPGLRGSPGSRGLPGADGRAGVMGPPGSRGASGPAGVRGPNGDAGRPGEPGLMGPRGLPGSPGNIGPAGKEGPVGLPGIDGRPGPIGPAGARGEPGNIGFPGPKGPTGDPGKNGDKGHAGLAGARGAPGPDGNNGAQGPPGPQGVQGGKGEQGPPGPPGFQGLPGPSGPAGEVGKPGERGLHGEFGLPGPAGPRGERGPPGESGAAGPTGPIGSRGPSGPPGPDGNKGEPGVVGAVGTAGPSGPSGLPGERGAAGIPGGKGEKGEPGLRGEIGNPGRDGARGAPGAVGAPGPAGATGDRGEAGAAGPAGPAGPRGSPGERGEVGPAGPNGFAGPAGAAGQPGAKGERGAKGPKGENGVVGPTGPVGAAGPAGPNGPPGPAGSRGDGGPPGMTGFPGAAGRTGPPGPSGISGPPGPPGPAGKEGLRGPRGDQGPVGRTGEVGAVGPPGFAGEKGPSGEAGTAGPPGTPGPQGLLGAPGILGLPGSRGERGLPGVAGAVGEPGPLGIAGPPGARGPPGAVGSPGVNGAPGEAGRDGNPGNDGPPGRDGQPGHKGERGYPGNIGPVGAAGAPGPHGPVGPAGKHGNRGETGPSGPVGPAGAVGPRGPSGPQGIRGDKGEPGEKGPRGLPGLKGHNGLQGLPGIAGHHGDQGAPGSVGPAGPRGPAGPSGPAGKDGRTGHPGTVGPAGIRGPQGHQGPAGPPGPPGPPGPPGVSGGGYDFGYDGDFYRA
Experiment: dried collagen assay; also: test concentration or dose not given here
Bridge positions count the residues as written; N and C are the ends. Square brackets hold non-standard residues; d marks the D form. Ends that are not written are not given here. Sar = CNCC(=O)O
TEST READOUT: % bound (%)
Output spec: scalar in %, unitless text.

Give the reported value of % bound for this record: YHACYQA[Sar]CWIW (disulfide 4-9 (inferred), cyclic, disulfide) [SEQ ID NO 104] 12

Give the reported value of % bound for this record: HWQCGEKMSFWSCELV (disulfide 4-13 (inferred), cyclic, disulfide) [SEQ ID NO 69] 3

Give the reported value of % bound for this record: YHACYQ[dA]GCWIW (disulfide 4-9 (inferred); not fully specified (C-terminus); printed as YHACYQaGCWIW, cyclic, disulfide; also called YHACYQaGCWIW) [SEQ ID NO 158] 56

Give the reported value of % bound for this record: Y[dH]ACYQAGCWIW (disulfide 4-9 (inferred); not fully specified (C-terminus); printed as YhACYQAGCWIW, cyclic, disulfide) [SEQ ID NO 153] 0

Give the reported value of % bound for this record: DWTCSGDEYRWHCNYE (disulfide 4-13 (inferred), cyclic, disulfide) [SEQ ID NO 19] 70

Give the reported value of % bound for this record: IWLCTGGAATWNCKFD (disulfide 4-13 (inferred), cyclic, disulfide) [SEQ ID NO 25] 39

Give the reported value of % bound for this record: TWACGWTTAGWDNCRWI (disulfide 4-14 (inferred), cyclic, disulfide) [SEQ ID NO 91] 28

Give the reported value of % bound for this record: SWNCHWRNQGWLCSGG (disulfide 4-13 (inferred), cyclic, disulfide) [SEQ ID NO 55] 12

Give the reported value of % bound for this record: EWQCTQYANQWNCKYN (disulfide 4-13 (inferred), cyclic, disulfide) [SEQ ID NO 45] 25

Give the reported value of % bound for this record: PLVCHPPYSGSCSLH (disulfide 4-12 (inferred), cyclic, disulfide) [SEQ ID NO 11] 9

Give the reported value of % bound for this record: EWLCVGDSLKWYCKHS (disulfide 4-13 (inferred), cyclic, disulfide) [SEQ ID NO 24] 43

Give the reported value of % bound for this record: TWICSHNDKGWTCGDQ (disulfide 4-13 (inferred), cyclic, disulfide) [SEQ ID NO 64] 8
